- Tested on: SK-MEL-5 melanoma
- test_description: NCI-60 one-dose screen, 48 h
- test_settings: 10 µM unless noted
The panel holds about 83,000 compounds, 20% with a hit somewhere; the sample as a whole holds those more often. The source made the active and inactive calls. Rule for the calls: active = growth percent below 10; inactive = the rest.
Possible outcomes: active, inactive

[
  {
    "compound": "CCCCCCCCCCCCOC(=N)N(C)C",
    "assay_system": "SK-MEL-5 melanoma",
    "qualitative_label": "inactive"
  },
  {
    "compound": "COC(c1ccccc1)C(Br)C(=O)c1ccccc1 (stereo unspecified)",
    "assay_system": "SK-MEL-5 melanoma",
    "qualitative_label": "inactive"
  },
  {
    "compound": "Cc1ccc(C(=O)Nc2ccc(CN3CCN(C)CC3)c(C(F)(F)F)c2)cc1C#Cc1cncc2ncccc12",
    "assay_system": "SK-MEL-5 melanoma",
    "qualitative_label": "active"
  },
  {
    "compound": "COc1ccc(/C=C2\\CCCC3=C2N=C2SC=NN2C3c2ccc(OC)c(OC)c2)cc1OC (stereo unspecified)",
    "assay_system": "SK-MEL-5 melanoma",
    "qualitative_label": "inactive"
  },
  {
    "compound": "COc1cc(C(=O)Nc2ccc(N(C)C)cc2)cc(OC)c1OC",
    "assay_system": "SK-MEL-5 melanoma",
    "qualitative_label": "inactive"
  },
  {
    "compound": "COc1cc2oc(-c3ccc(NC(=O)c4ccccc4)cc3)cc(=O)c2c(OC)c1OC",
    "assay_system": "SK-MEL-5 melanoma",
    "qualitative_label": "inactive"
  },
  {
    "compound": "C=C(C)C(C(=O)OCC)(C(=O)OCC)C(C)C",
    "assay_system": "SK-MEL-5 melanoma",
    "qualitative_label": "inactive"
  },
  {
    "compound": "CCCCn1c(Cc2ccc(OC)cc2)nc2cc(OC)c(OC)cc2c1=O",
    "assay_system": "SK-MEL-5 melanoma",
    "qualitative_label": "inactive"
  },
  {
    "compound": "Cc1c(Cc2ccccc2)c(=O)oc2c(C)c(OCc3n[nH]c(=S)o3)ccc12",
    "assay_system": "SK-MEL-5 melanoma",
    "qualitative_label": "inactive"
  },
  {
    "compound": "CC(=O)N1CCN(CCNC(=O)n2cc(-c3ccncc3)c(-c3ccc(O)c(Cl)c3)n2)CC1",
    "assay_system": "SK-MEL-5 melanoma",
    "qualitative_label": "inactive"
  },
  {
    "compound": "CC#Cc1nc(Nc2cc(C)[nH]n2)c2ccccc2n1",
    "assay_system": "SK-MEL-5 melanoma",
    "qualitative_label": "active"
  }
]

----------
- Test system: UACC-257 melanoma
- test_description: NCI-60 one-dose screen, 48 h (100 = growth as untreated, 0 = no growth, -100 = all killed)
- test_settings: 10 µM unless noted
The panel holds about 83,000 compounds, 20% with a hit somewhere; the sample as a whole holds those more often.
growth values, listed per item
endpoint_label: growth (%)

[
  {
    "compound": "O=C1C=C(OCC=C(C(F)(F)F)C(F)(F)F)c2ccccc2C1=O",
    "readout_value": 45.8
  },
  {
    "compound": "CC(=O)Nc1ccc(S(=O)(=O)Cl)cc1",
    "readout_value": 131
  },
  {
    "compound": "O=C1c2ccccc2CCc2ccccc21",
    "readout_value": 103
  },
  {
    "compound": "COc1nc(OC)nc(-c2cc(C(=O)c3ccc(Br)cc3)n3cc(C)cc(C)c23)n1",
    "readout_value": 94.8
  },
  {
    "compound": "CCOC(=O)c1cc(C(=O)c2ccc(Br)cc2)n2cc(C)cc(C)c12",
    "readout_value": 87.2
  },
  {
    "compound": "CCCCCCCCCCC(C[N+](C)(C)C/C=C/c1ccccc1)C(O)c1ccccc1 (stereo unspecified)",
    "readout_value": 21
  },
  {
    "compound": "CC1CCCCC[N+]12CCCC2 (stereo unspecified)",
    "readout_value": 104
  },
  {
    "compound": "CCOC(=O)c1sc(NS(=O)(=O)c2ccccc2)nc1C",
    "readout_value": 110
  },
  {
    "compound": "Cc1nc2c(nnn2-c2ccccc2)c2nc(-c3ccccc3)oc(=O)c12",
    "readout_value": 123
  },
  {
    "compound": "CC(C)CSc1nc(-c2ccc(F)cc2)c(C#N)c(N2CCCCC2)n1",
    "readout_value": 100
  },
  {
    "compound": "O=C1C(=O)c2ccccc2C(O)=C1CCCc1ccc(Oc2ccccc2)cc1",
    "readout_value": 51.5
  }
]
